System: clinically separated clarithromycin-resistant strains and amoxicillin-insensitive strains of Helicobacter pylori
Experiment: Antibacterial potency (MIC) against clarithromycin-resistant and amoxicillin-insensitive strains, Pharmacological Test Example 3
Type: cell-based
Conditions: Helicobacter pylori, CAM-resistant strain NO. 3; read-out: MIC
Observable: MIC (µg/mL)

{"columns": ["Compound Structure", "Value Relation Sign", "Value Reported"],
 "data": [
  ["CCCCCCCOc1ccnc(CSc2nc3ccccc3[nH]2)c1C", "=", 0.1],
  ["CC1(C)S[C@@H]2[C@H](NC(=O)[C@H](N)c3ccc(O)cc3)C(=O)N2[C@H]1C(=O)O", "<", 0.015],
  ["CC[C@H]1OC(=O)[C@H](C)[C@@H](O[C@H]2C[C@@](C)(OC)[C@@H](O)[C@H](C)O2)[C@H](C)[C@@H](O[C@@H]2O[C@H](C)C[C@H](N(C)C)[C@H]2O)[C@](C)(OC)C[C@@H](C)C(=O)[C@H](C)[C@@H](O)[C@]1(C)O", "=", 64],
  ["CCCCCOc1ccnc(CSc2nc3ccccc3[nH]2)c1C", "=", 0.06],
  ["CCCCCCOc1ccnc(CSc2nc3ccccc3[nH]2)c1C", "=", 0.06]
]}
